ASSAY_SUMMARY: Volume of distribution in rhesus monkey at 0.5 mg/kg, iv and 2 mg/kg, po
Assay type: ADME, organism-based, Macaca mulatta
TEST_SETTINGS: in vivo
MEASURED_PARAMETER: Vd (L/kg)
Lab book: enter the figure in L/kg, no units written.

What does the record list as Vd for "CCS(=O)(=O)CCC12CCC(c3nnc(-c4ccccc4C(F)(F)F)n3C)(CC1)CC2" ? 1.6

----------
ASSAY_SUMMARY: Volume of distribution in C57 mouse at 2 mg/kg, iv and 10 mg/kg, po
Type: ADME, organism-based
TEST_SETTINGS: in vivo
MEASURED_PARAMETER: Vd (L/kg)
Please give a number only; it is taken to be in L/kg.

What does the record list as Vd for "CCS(=O)(=O)CCC12CCC(c3nnc(-c4ccccc4C(F)(F)F)n3C)(CC1)CC2" ? 0.72

----------
ASSAY_SUMMARY: Solubility of the compound in water
Assay type: physicochemical
MEASURED_PARAMETER: solubility

Reported solubility, compound "CCS(=O)(=O)CCC12CCC(c3nnc(-c4ccccc4C(F)(F)F)n3C)(CC1)CC2" : ____ > 1 mg/mL

----------
ASSAY_SUMMARY: Clearance in Beagle dog at 0.5 mg/kg, iv and 2 mg/kg, po
Type: ADME, organism-based, Canis lupus familiaris
TEST_SETTINGS: in vivo
MEASURED_PARAMETER: clearance (mL/min/kg)
The answer is to be given in mL/min/kg; state only the numeric part.

Sample "CCS(=O)(=O)CCC12CCC(c3nnc(-c4ccccc4C(F)(F)F)n3C)(CC1)CC2" — what was its clearance? 1.9

----------
ASSAY_SUMMARY: Clearance in Sprague-Dawley rat at 1 mg/kg, iv and 4 mg/kg, po
Format: ADME, organism-based
TEST_SETTINGS: in vivo
MEASURED_PARAMETER: clearance (mL/min/kg)
Could you give me the number in mL/min/kg? Just the number is fine.

Item under review: "CCS(=O)(=O)CCC12CCC(c3nnc(-c4ccccc4C(F)(F)F)n3C)(CC1)CC2" . Reported clearance? 2.9

----------
ASSAY_SUMMARY: Bioavailability in Sprague-Dawley rat 1 mg/kg, iv and 4 mg/kg, po
Assay type: ADME, organism-based
TEST_SETTINGS: in vivo
MEASURED_PARAMETER: bioavailability (%)
The reply should contain only the number, in %.

Return reported bioavailability; argument: "CCS(=O)(=O)CCC12CCC(c3nnc(-c4ccccc4C(F)(F)F)n3C)(CC1)CC2" 87

----------
ASSAY_SUMMARY: Volume of distribution in Beagle dog at 0.5 mg/kg, iv and 2 mg/kg, po
Type: ADME, organism-based, Canis lupus familiaris
TEST_SETTINGS: in vivo
MEASURED_PARAMETER: Vd
Kindly report the value followed by its unit.

Any idea what its Vd is? The compound is "CCS(=O)(=O)CCC12CCC(c3nnc(-c4ccccc4C(F)(F)F)n3C)(CC1)CC2" 1.7 L/kg

----------
ASSAY_TARGET: 11-beta-hydroxysteroid dehydrogenase 1 (Mus musculus, UniProt P50172)
Sequence (P50172 whole entry): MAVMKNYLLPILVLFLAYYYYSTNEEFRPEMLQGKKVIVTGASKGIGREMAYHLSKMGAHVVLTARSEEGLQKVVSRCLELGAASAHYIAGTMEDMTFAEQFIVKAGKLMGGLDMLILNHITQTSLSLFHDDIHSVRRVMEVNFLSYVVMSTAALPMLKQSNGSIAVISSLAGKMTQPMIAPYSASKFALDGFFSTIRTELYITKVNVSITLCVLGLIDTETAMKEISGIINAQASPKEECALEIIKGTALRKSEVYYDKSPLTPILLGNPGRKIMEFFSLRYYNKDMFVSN
ASSAY_SUMMARY: Inhibition of mouse 11beta-HSD1 expressed in CHO-K1 cells assessed as conversion of [3H]-cortisone to [3H]-cortisol by scintillation proximity assay
Item-by-item account of IC50
Report only the number, with the unit nM understood.

Known results for compounds:
                                   compound  observed_value
0  Cn1c(-c2ccccc2C(F)(F)F)nnc1C12CCC(CCS(=O)(=O)C(F)(F)F)(CC1)CC2             2.2
1  Cn1c(-c2ccccc2C(F)(F)F)nnc1C12CCC(CCS(=O)(=O)CC(F)(F)F)(CC1)CC2             1.5
2  CC[S+]([O-])CCC12CCC(c3nnc(-c4ccccc4C(F)(F)F)n3C)(CC1)CC2 (stereo unspecified)              10
3  Cn1c(-c2ccccc2C(F)(F)F)nnc1C12CCC(CCS(=O)(=O)C(C)(C)C)(CC1)CC2             6.3
4  CCOCC12CCC(c3nnc(-c4ccccc4C(F)(F)F)n3C)(CC1)CC2               2
5  CCS(=O)(=O)NCC12CCC(c3nnc(-c4ccccc4C(F)(F)F)n3C)(CC1)CC2             2.9
6  CCCS(=O)(=O)CCC12CCC(c3nnc(-c4ccccc4C(F)(F)F)n3C)(CC1)CC2             6.7
7  CC(=O)CCCC12CCC(c3nnc(-c4ccccc4C(F)(F)F)n3C)(CC1)CC2             1.3
8  CCSCCC12CCC(c3nnc(-c4ccccc4C(F)(F)F)n3C)(CC1)CC2             3.9

Attention now shifts to the item below.
Would you kindly share the measured IC50 for CC(O)CCCC12CCC(c3nnc(-c4ccccc4C(F)(F)F)n3C)(CC1)CC2 (stereo unspecified) ? 1.7
